Tested on: DU-145
ASSAY_REMARKS: Cell growth inhibition assay, prostate cancer cell line DU-145
Type: cell-based
TEST_SETTINGS: Homo sapiens, DU-145 prostate cancer cell line
EXPERIMENTAL_ENDPOINT: IC50 (µM)

(1) COc1cc(OC(F)(F)F)cc(C(C)(C)c2cc(Cl)cc(NC(=O)c3cc4ccc(NS(C)(=O)=O)cc4[nH]3)c2)c1 [Example 24]
(2) CC(C)Oc1cc(OC(F)(F)F)cc(C(C)(C)c2cc(Cl)cc(NC(=O)c3cc4cc(NS(C)(=O)=O)ccc4[s+]3[O-])c2)c1 (stereo not drawn) [Example 223]
Problem: Param metric = IC50; output whichever of 1 , 2 has the minimum value. Could you answer with the label of the item you picked?
Result: 2
